ASSAY SYSTEM: Gal(b1-4)GlcNAc(b1-3)Gal(b1-4)GlcNAc(b1-3)Gal(b1-4)GlcNAc(b1-2)Man(a1-3)[Gal(b1-4)GlcNAc(b1-3)Gal(b1-4)GlcNAc(b1-3)Gal(b1-4)GlcNAc(b1-2)Man(a1-6)]Man(b1-4)GlcNAc(b1-4)[Fuc(a1-6)]GlcNAc
PROTOCOL TEXT: glycan array binding signal (z-score within array); higher = stronger binding
EXPERIMENTAL CONDITIONS: glycan notation: IUPAC condensed, linker removed
The entries come from a sample that favours the strongest signals as a whole.
For each of the binders below, state its glycan array binding signal (z-score).
Give bare numbers.

>  <BINDER>
LSL-150 (Laetiporus sulphureus), Q7Z8V1 (protein) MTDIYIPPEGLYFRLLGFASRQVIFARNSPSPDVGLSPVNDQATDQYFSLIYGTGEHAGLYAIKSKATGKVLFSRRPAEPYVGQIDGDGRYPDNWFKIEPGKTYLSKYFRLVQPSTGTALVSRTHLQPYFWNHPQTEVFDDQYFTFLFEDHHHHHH

>  <PROPERTY MEASURED>
glycan array binding signal (z-score)

>  <MEASURED NUMBER>
5.23

$$$$
>  <BINDER>
MpAFP NterminalRI GFP (Marinomonas primoryensis) (protein) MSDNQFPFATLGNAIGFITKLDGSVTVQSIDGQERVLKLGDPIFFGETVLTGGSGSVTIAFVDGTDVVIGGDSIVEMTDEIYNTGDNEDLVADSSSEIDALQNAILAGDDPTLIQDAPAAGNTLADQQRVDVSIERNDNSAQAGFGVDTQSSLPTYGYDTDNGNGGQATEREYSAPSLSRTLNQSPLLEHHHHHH

>  <PROPERTY MEASURED>
glycan array binding signal (z-score)

>  <MEASURED NUMBER>
0.649

$$$$

Now for another entry.
// field: glycan array binding signal (z-score); key: SUN4 (Saccharomyces cerevisiae), P53616 (protein) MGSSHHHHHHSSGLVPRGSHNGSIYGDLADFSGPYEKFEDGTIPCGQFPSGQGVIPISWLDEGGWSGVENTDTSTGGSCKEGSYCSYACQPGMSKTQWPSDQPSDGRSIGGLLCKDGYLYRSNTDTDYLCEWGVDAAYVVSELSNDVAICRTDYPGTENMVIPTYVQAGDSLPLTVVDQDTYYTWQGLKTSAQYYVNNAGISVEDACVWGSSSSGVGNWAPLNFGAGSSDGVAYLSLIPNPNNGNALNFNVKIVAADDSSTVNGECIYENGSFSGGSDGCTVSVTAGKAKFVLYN ; value = 2.9
